Test: Metabolic stability in mouse liver microsome assessed as compound remaining at 500 uM incubated for 10 mins in presence of NADPH and G6PDH by LC-MS/MS analysis
Settings: liver microsomes
readout: remaining at 10 min, 500 µM (%)
Numbers only, in %.

Req: Bench note: what remaining at 10 min, 500 µM did O=C(C1CCCCC1)N1CON2CCc3ccccc3C2C1 (stereo unspecified) show?
Resp: 2.7

* * *

Experiment: Metabolic stability in human liver microsome assessed as compound remaining at 500 uM incubated for 60 mins in presence of NADPH and G6PDH by LC-MS/MS analysis
Conditions: liver microsomes
readout: remaining at 1 h, 500 µM (%)
Answers are plain numbers, in %.

Req: Which remaining at 1 h, 500 µM value belongs to O=C(C1CCCCC1)N1CON2CCc3ccccc3C2C1 (stereo unspecified) ?
Resp: 5.9
